Recorded IC50 by entry
SYSTEM_UNDER_TEST: partially purified pig heart adenosine kinase (Sus scrofa, UniProt A0A5G2R0F5)
Construct: partially purified pig heart adenosine kinase; from tissue; host or cells: pig heart
Sequence (A0A5G2R0F5 1-362): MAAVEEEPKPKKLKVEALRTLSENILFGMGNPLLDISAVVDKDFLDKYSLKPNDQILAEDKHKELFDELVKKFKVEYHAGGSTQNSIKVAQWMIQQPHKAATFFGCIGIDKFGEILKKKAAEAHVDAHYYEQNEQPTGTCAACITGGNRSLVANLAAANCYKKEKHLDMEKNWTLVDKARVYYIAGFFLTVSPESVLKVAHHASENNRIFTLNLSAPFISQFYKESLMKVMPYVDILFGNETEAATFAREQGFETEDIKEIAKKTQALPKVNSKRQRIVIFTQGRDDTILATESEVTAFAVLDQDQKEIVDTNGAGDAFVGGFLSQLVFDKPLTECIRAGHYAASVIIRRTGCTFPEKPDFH
ASSAY_DETAILS: Adenosine kinase (AK) inhibition
Assay type: biochemical
ENDPOINT_LABEL: IC50 (nM)

1) CCOc1ccc(Nc2ncnc3c2c(-c2ccccc2)cn3[C@@H]2O[C@H](C)[C@@H](O)[C@H]2O)cc1 ... 4
2) C[C@H]1O[C@@H](n2cc(-c3ccccc3)c3c(Nc4ccc(F)cc4)ncnc32)[C@H](O)[C@@H]1O ... 11
3) C[C@H]1O[C@@H](n2cc(-c3ccccc3)c3c(Nc4ccc(F)c(F)c4)ncnc32)[C@H](O)[C@@H]1O ... 4
4) C[C@H]1O[C@@H](n2c(Br)c(-c3ccccc3)c3c(Nc4ccc(F)cc4)ncnc32)[C@H](O)[C@@H]1O ... 42

----------
SYSTEM_UNDER_TEST: partially purified pig heart adenosine kinase (Sus scrofa, UniProt A0A5G2R0F5)
Construct: partially purified pig heart adenosine kinase; from tissue; host or cells: pig heart
ASSAY_DETAILS: Adenosine kinase (AK) inhibition
Format: biochemical
ENDPOINT_LABEL: IC50 (nM)

1) COc1ccc(Nc2ncnc3c2c(-c2ccccc2)nn3[C@@H]2O[C@H](C)[C@@H](O)[C@H]2O)cc1 ... 17
2) CSc1ccc(Nc2ncnc3c2c(-c2ccccc2)cn3[C@@H]2O[C@H](C)[C@@H](O)[C@H]2O)cc1 ... 2
3) C[C@H]1O[C@@H](n2cc(-c3cccc(Cl)c3)c3c(Nc4ccccc4)ncnc32)[C@H](O)[C@@H]1O ... 16
4) [N-]=[N+]=NC[C@H]1O[C@@H](n2nc(-c3ccccc3)c3c(Nc4ccc(Cl)cc4)ncnc32)[C@H](O)[C@@H]1O ... 17
5) C[C@H]1O[C@@H](n2cc(-c3cccc([N+](=O)[O-])c3)c3c(Nc4ccc(F)cc4)ncnc32)[C@H](O)[C@@H]1O ... 28
6) Cc1ccc(-c2cn([C@@H]3O[C@H](C)[C@@H](O)[C@H]3O)c3ncnc(Nc4ccccc4)c23)cc1 ... 9
7) CCc1ccc(Nc2ncnc3c2c(-c2ccccc2)cn3[C@@H]2O[C@H](C)[C@@H](O)[C@H]2O)cc1 ... 20
8) C[C@H]1O[C@@H](n2cc(-c3ccccc3)c3c(Nc4cc(F)cc(F)c4)ncnc32)[C@H](O)[C@@H]1O ... 1
9) COc1ccc(Nc2ncnc3c2c(-c2ccccc2)cn3[C@@H]2O[C@H](C)[C@@H](O)[C@H]2O)cc1 ... 6
10) C[C@H]1O[C@@H](n2cc(-c3ccccc3)c3c(Nc4ccc(S(N)(=O)=O)cc4)ncnc32)[C@H](O)[C@@H]1O ... 5
11) C[C@H]1O[C@@H](n2cc(-c3ccccc3)c3c(Nc4cccc(F)c4)ncnc32)[C@H](O)[C@@H]1O ... 2
12) COc1ccc(-c2nn([C@@H]3O[C@H](CN=[N+]=[N-])[C@@H](O)[C@H]3O)c3ncnc(Nc4ccccc4)c23)cc1 ... 3
13) C[C@H]1O[C@@H](n2cc(-c3ccccc3)c3c(Nc4ccc(N)cc4)ncnc32)[C@H](O)[C@@H]1O ... 3
14) C[C@H]1O[C@@H](n2cc(-c3ccccc3)c3c(Nc4ccc(O)cc4)ncnc32)[C@H](O)[C@@H]1O ... 32
15) C[C@H]1O[C@@H](n2cc(-c3ccccc3)c3c(NCc4ccccc4)ncnc32)[C@H](O)[C@@H]1O ... 30
16) C[C@H]1O[C@@H](n2cc(-c3ccccc3)c3c(Nc4ccc(C#N)cc4)ncnc32)[C@H](O)[C@@H]1O ... 14
17) C[C@H]1O[C@@H](n2nc(-c3ccccc3)c3c(Nc4ccccc4)ncnc32)[C@H](O)[C@@H]1O ... 4.5
18) COc1ccc(-c2cn([C@@H]3O[C@H](C)[C@@H](O)[C@H]3O)c3ncnc(Nc4ccc(C(N)=O)cc4)c23)cc1 ... 2
19) [N-]=[N+]=NC[C@H]1O[C@@H](n2nc(-c3ccc(Cl)cc3)c3c(Nc4ccccc4)ncnc32)[C@H](O)[C@@H]1O ... 15
20) OC[C@H]1O[C@@H](n2nc(-c3ccccc3)c3c(Nc4ccccc4)ncnc32)[C@H](O)[C@@H]1O ... 5
21) COc1ccc(-c2cn([C@@H]3O[C@H](C)[C@@H](O)[C@H]3O)c3ncnc(Nc4ccc(F)cc4)c23)cc1 ... 10
22) Cc1cccc(Nc2ncnc3c2c(-c2ccccc2)cn3[C@@H]2O[C@H](C)[C@@H](O)[C@H]2O)c1 ... 4
23) CC(=O)Nc1ccc(Nc2ncnc3c2c(-c2ccccc2)cn3[C@@H]2O[C@H](C)[C@@H](O)[C@H]2O)cc1 ... 0.5
24) [N-]=[N+]=NC[C@H]1O[C@@H](n2nc(-c3ccccc3)c3c(Nc4ccccc4)ncnc32)[C@H](O)[C@@H]1O ... 4.5
25) Cc1ccc(-c2nn([C@@H]3O[C@H](CN=[N+]=[N-])[C@@H](O)[C@H]3O)c3ncnc(Nc4ccccc4)c23)cc1 ... 20
26) C[C@H]1O[C@@H](n2cc(-c3ccccc3)c3c(Nc4cccc(Cl)c4)ncnc32)[C@H](O)[C@@H]1O ... 17
27) COc1ccc(Nc2ncnc3c2c(-c2ccccc2)nn3[C@@H]2O[C@H](CN=[N+]=[N-])[C@@H](O)[C@H]2O)cc1 ... 8

Each recorded value in this set is attributed to patent US5721356A.
